Numbers sourced from paper PMC6888386.

property_measured: melting point

Return reported melting point; argument: Cc1ccc(-c2cc(-c3ccc(C)cc3)cc(-c3ccc(C)cc3)c2)cc1 [Compound 4, 1,3,5-tris(4-methylphenyl)benzene]
178 to 179 °C

And the next one, Oc1ccc(-c2cc(-c3ccc(O)cc3)cc(-c3ccc(O)cc3)c2)cc1 [Compound 6, 1,3,5-tris(4-hydroxyphenyl)benzene] ?
237 to 239 °C

// repeat for Fc1ccc(-c2cc(-c3ccc(F)cc3)cc(-c3ccc(F)cc3)c2)cc1 [Compound 2, 1,3,5-tris(4-fluorophenyl)benzene] and report
238 to 240 °C

Record: O=[N+]([O-])c1ccc(-c2cc(-c3ccc([N+](=O)[O-])cc3)cc(-c3ccc([N+](=O)[O-])cc3)c2)cc1 [Compound 3, 1,3,5-tris(4-nitrophenyl)benzene]
151 to 152 °C

Then c1ccc(-c2cc(-c3ccccc3)cc(-c3ccccc3)c2)cc1 [Compound 1, 1,3,5-triphenylbenzene] ?
171 to 173 °C

Likewise for COc1ccc(-c2cc(-c3ccc(OC)cc3)cc(-c3ccc(OC)cc3)c2)cc1 [Compound 5, 1,3,5-tris(4-methoxyphenyl)benzene] ?
142 to 143 °C
